Where do these numbers come from? They come from patent US20240368104A1.

# System: SARS-COV-2
# assay_notes: microbe, parasite or virus in culture
# Format: cell-based
# Design: unit not given here
# setup_conditions: SARS-COV-2; values >50 assumed to be 50
Doc: threshold 20 (exclusive). Items with SI (Selectivity Index, CC50/IC50) beneath it return met; others return not met.

Some solved entries appear below for comparison.
COc1cc2cc3c(c(-c4ccc(N5CCCC5)cc4)c2cc1OC)C(=O)OC3 [Example 251]; not met
COCCN(C)c1ncc(-c2c3c(cc4cc(OC)c(OC)cc24)COC3=O)cn1 [Example 18]; not met
COc1cc2cc3c(c(-c4ccc5c(O)ccnc5c4C)c2cc1OC)C(=O)OC3 [Example 154]; met
COc1cc2c(OC)c3c(c(-c4ccc(N(C)C5Cc6ccccc6C5)nc4)c2cc1OC)COC3=O.Cl [Example 268]; met
COc1cc2cc3c(c(-c4cnc(N5CCC[C@H]5C(=O)N[C@@H](C)c5ccc(F)cc5)nc4)c2cc1OC)C(=O)OC3 [Example 39]; met
COc1cc2cc3c(c(-c4ccc(N5CCC(C)CC5)nc4)c2cc1OC)C(=O)OC3 [Example 159]; not met
CCN(c1ncc(-c2c3c(cc4cc(OC)c(OC)cc24)COC3=O)cn1)C1CCCCC1.Cl [Example 78]; met

Consider the record given below.
Qu. Threshold test, SI (Selectivity Index, CC50/IC50) < 20: COc1cc2cc3c(c(-c4cnc(OCCN5CCOCC5)nc4)c2cc1OC)C(=O)OC3 [Example 13]
Ans. met

* * *

# Lookup of reported pIC50 keyed by entry
# Tested on: SARS-COV-2
# assay_notes: microbe, parasite or virus in culture
# Format: cell-based
# setup_conditions: Severe acute respiratory syndrome coronavirus 2; Vero cells, 24 hours infection; read-out: SARS-COV-2 inhibition (IC50)
Quick note: pIC50 values are minus log10 of concentrations in mol/L.

Record excerpt, results attached:
CNc1ncc(-c2c3c(cc4cc(OC)c(OC)cc24)COC3=O)cn1; 5.56
COc1cc2cc3c(c(-c4ccc(N(C)Cc5ccc(C)o5)nc4)c2cc1OC)C(=O)OC3; 5.99
COc1cc2cc3c(c(-c4ccc(N5CC(C)CC(C)C5)nc4)c2cc1OC)C(=O)OC3 (centres unmarked); 5.96
COc1cc2cc3c(c(-c4ccc(N(C)C(C)C)nc4)c2cc1OC)C(=O)OC3; 7.40

Qu. # query: pIC50 of entry COc1ccc2c(-c3c4c(cc5cc(OC)c(OC)cc35)COC4=O)cc(C)nc2c1
Ans. 4.62

* * *

# Test system: SARS-COV-2
# assay_notes: microbe, parasite or virus in culture
# Assay type: cell-based
# Parameters: unit not given here
# setup_conditions: SARS-COV-2; values >50 assumed to be 50
# Lookup of reported SI (Selectivity Index, CC50/IC50) keyed by entry
Reply briefly: the number, and no unit.

Record excerpt, results attached:
COc1cc2cc3c(c(-c4cc5c(cc4OC(=O)C(C)C)OCO5)c2cc1OC)C(=O)OC3 [Example 275]; 1.76
CCCN(CCO)c1ncc(-c2c3c(cc4cc(OC)c(OC)cc24)COC3=O)cn1.Cl [Example 77]; 1.58
COc1cc2cc3c(c(-c4cnc(N5CCC[C@H]5C(=O)NCc5ccc(C)o5)nc4)c2cc1OC)C(=O)OC3 [Example 41]; 2.41
COc1cc2c(OC)c3c(c(-c4ccc(N5CCOCC5)nc4)c2cc1OC)COC3=O [Example 267]; 1.00

Qu. Value wanted: SI (Selectivity Index, CC50/IC50) (SARS-COV-2) of entry CCCCN(C)c1ncc(-c2c3c(cc4cc(OC)c(OC)cc24)COC3=O)cn1 [Example 71]
Ans. 234.36

Qu. Value wanted: SI (Selectivity Index, CC50/IC50) (SARS-COV-2) of entry COc1cc2cc3c(c(N4C[C@@H](C)O[C@@H](C)C4)c2cc1OC)C(=O)OC3 [Example 2]
Ans. 1.00

Qu. Value wanted: SI (Selectivity Index, CC50/IC50) (SARS-COV-2) of entry COc1cc2cc3c(c(-c4ccc(N5CCSCC5)nc4)c2cc1OC)C(=O)OC3 [Example 10]
Ans. 91.58

Qu. Value wanted: SI (Selectivity Index, CC50/IC50) (SARS-COV-2) of entry COc1cc2cc3c(c(-c4ccc(N(C)c5cccc(C#N)c5)nc4)c2cc1OC)C(=O)OC3.Cl [Example 237]
Ans. 61.98
